Source listed as patent US9593108B2.

The entries below come with measured melting point values attached.
Recorded Metric: melting point

molecule=Cc1cnc2c(c1)c(C#N)c(-c1ccc(NC(C)C)cc1)n2C1CCC1 recorded_result="193 to 199 °C"
molecule=CC(C)(C)NS(=O)(=O)c1ccc(-c2c(C#N)c3cc(C(F)(F)F)cnc3n2-c2cnccn2)nc1 recorded_result="214.2 to 215.4 °C"
molecule=Cc1cnc2c(c1)c(C#N)c(-c1ccc(S(=O)(=O)N[C@@H](C)C(F)(F)F)cn1)n2-c1cncnc1 recorded_result="231 to 233 °C"
molecule=C[C@H](NS(=O)(=O)c1ccc(-c2c(C#N)c3cc(Cl)cnc3n2C2CCC2)nc1)C(F)(F)F recorded_result="203 to 204 °C"
molecule=Cc1cnc2c(C#N)c(-c3ccc(S(=O)(=O)N[C@@H](C)C(F)(F)F)cn3)n(-c3cc(C(F)(F)F)ccn3)c2c1 recorded_result="245 to 246 °C"
molecule=Cc1cc(S(=O)(=O)N[C@@H](C)C(F)(F)F)cnc1-c1c(C#N)c2cc(C(F)(F)F)cnc2n1C1CCC1 recorded_result="190 to 194 °C"
molecule=C[C@H](NS(=O)(=O)c1ccc(-c2c(C#N)c3cc(C4CC4)ncc3n2C2CCC2)nc1)C(F)(F)F recorded_result="200 to 205 °C"
molecule=Cc1cc2c(cn1)c(C#N)c(-c1ccc(S(=O)(=O)N[C@@H](C)C(F)(F)F)cn1)n2C1CCC1 recorded_result="189 to 191 °C"
molecule=C[C@H](NS(=O)(=O)c1ccc(-c2c(C#N)c3ncc(Cl)cc3n2C2CCC2)nc1)C(F)(F)F recorded_result="201 to 205 °C"
molecule=CCc1cnc2c(c1)c(C#N)c(-c1ccc(S(=O)(=O)NC(CF)CF)cn1)n2C1CCC1 recorded_result="157 to 165 °C"
molecule="C[C@H](NS(=O)(=O)c1ccc(-c2c(C#N)c3cc([S+](C)[O-])cnc3n2C2CCC2)nc1)C(F)(F)F (stereo partly drawn)" recorded_result="257 to 258 °C"
molecule=CC(C)Oc1cnc2c(c1)c(C#N)c(-c1ccc(S(=O)(=O)N[C@@H](C)C(F)(F)F)cn1)n2C1CCC1 recorded_result="168 to 169 °C"
molecule=Cc1cnc2c(C#N)c(-c3ccc(S(=O)(=O)NC4(C(F)(F)F)CC4)cn3)n(C3CCC3)c2c1 recorded_result="248 to 249 °C"
molecule=COc1cc2c(C#N)c(-c3ccc(S(=O)(=O)N[C@@H](C)C(F)(F)F)cn3)n(C3CCC3)c2nc1C recorded_result="175 to 177 °C"
molecule=CC(C)(C)S(=O)(=O)Nc1ccc(-c2c(C#N)c3cc(Cl)cnc3n2C2CCC2)cc1 recorded_result="240 to 241 °C"
molecule=Cc1cnc2c(C#N)c(-c3ccc(S(=O)(=O)N[C@@H](C)C(F)(F)F)cn3)n(-c3cncs3)c2c1 recorded_result="273 to 275 °C"
molecule=C[C@H](NS(=O)(=O)c1ccc(-c2c(C#N)c3cc(F)cnc3n2CC2CC2)nc1)C(F)(F)F recorded_result="186 to 188 °C"
molecule=CCc1cnc2c(c1)c(C#N)c(-c1ccc(S(=O)(=O)N[C@@H](C)C(F)(F)F)cn1)n2-c1ccc(F)cn1 recorded_result="175 to 177 °C"
molecule=COc1cnc2c(c1)c(C(N)=O)c(-c1ccc(NS(=O)(=O)C(C)(C)C)cc1)n2C1CCCC1 recorded_result="269 to 272 °C"
molecule=COc1cnc2c(c1)c(C#N)c(-c1ncc(S(=O)(=O)NC3(C)CC3)cn1)n2C1CCC1 recorded_result="209 to 212 °C"
molecule=CC(C)NS(=O)(=O)c1cnc(-c2c(C#N)c3cc(F)cnc3n2C2CCC2)nc1 recorded_result="207 to 209 °C"
molecule=Cc1cnc2c(c1)c(C#N)c(-c1ccc(S(=O)(=O)N[C@@H](C)C(F)(F)F)cn1)n2-c1nc(C#N)cs1 recorded_result="259 to 261 °C"
molecule=CCn1c(-c2ccc(S(=O)(=O)N[C@@H](C)C(F)(F)F)cn2)c(C#N)c2cc(C)cnc21 recorded_result="168 to 171 °C"
molecule=Cc1cnc2c(c1)c(C#N)c(-c1ccc(S(=O)(=O)N[C@@H](C)C(F)(F)F)cc1)n2CC1CC1 recorded_result="175 to 181 °C"
molecule=Cc1cnc2c(c1)c(C#N)c(-c1ccc(S(=O)(=O)N[C@@H](C)C(F)(F)F)cn1)n2-c1ccccn1 recorded_result="165 to 167 °C"
molecule=NC(=O)c1c(-c2ccc(NS(=O)(=O)C3CC3)cc2)n(C2CCCCC2)c2ncc(C(F)(F)F)cc12 recorded_result="220 to 222 °C"
molecule=C[C@H](NS(=O)(=O)c1ccc(-c2c(C(N)=O)c3cc(Cl)cnc3n2C2CCCC2)nc1)C(F)(F)F recorded_result="289 to 295 °C"
molecule=C[C@H](NS(=O)(=O)c1cnc(-c2c(C#N)c3cc(F)cnc3n2C2CCC2)nc1)C(F)(F)F recorded_result="186 to 187 °C"
molecule=C[C@@H](NS(=O)(=O)c1ccc(-c2c(C#N)c3ccc(Cl)nc3n2C2CCC2)nc1)C(F)(F)F recorded_result="172 to 178 °C"
molecule=C[C@H](NS(=O)(=O)c1ccc(-c2c(C#N)c3ccc(C4CC4)nc3n2C2CCC2)nc1)C(F)(F)F recorded_result="170 to 176 °C"
